# target-or-system: bovine cardiac myofibrils (full-length cardiac myosin ATPase in the native sarcomere) (Bos taurus (Bovine))
# Sequence (Q9BE39 whole entry): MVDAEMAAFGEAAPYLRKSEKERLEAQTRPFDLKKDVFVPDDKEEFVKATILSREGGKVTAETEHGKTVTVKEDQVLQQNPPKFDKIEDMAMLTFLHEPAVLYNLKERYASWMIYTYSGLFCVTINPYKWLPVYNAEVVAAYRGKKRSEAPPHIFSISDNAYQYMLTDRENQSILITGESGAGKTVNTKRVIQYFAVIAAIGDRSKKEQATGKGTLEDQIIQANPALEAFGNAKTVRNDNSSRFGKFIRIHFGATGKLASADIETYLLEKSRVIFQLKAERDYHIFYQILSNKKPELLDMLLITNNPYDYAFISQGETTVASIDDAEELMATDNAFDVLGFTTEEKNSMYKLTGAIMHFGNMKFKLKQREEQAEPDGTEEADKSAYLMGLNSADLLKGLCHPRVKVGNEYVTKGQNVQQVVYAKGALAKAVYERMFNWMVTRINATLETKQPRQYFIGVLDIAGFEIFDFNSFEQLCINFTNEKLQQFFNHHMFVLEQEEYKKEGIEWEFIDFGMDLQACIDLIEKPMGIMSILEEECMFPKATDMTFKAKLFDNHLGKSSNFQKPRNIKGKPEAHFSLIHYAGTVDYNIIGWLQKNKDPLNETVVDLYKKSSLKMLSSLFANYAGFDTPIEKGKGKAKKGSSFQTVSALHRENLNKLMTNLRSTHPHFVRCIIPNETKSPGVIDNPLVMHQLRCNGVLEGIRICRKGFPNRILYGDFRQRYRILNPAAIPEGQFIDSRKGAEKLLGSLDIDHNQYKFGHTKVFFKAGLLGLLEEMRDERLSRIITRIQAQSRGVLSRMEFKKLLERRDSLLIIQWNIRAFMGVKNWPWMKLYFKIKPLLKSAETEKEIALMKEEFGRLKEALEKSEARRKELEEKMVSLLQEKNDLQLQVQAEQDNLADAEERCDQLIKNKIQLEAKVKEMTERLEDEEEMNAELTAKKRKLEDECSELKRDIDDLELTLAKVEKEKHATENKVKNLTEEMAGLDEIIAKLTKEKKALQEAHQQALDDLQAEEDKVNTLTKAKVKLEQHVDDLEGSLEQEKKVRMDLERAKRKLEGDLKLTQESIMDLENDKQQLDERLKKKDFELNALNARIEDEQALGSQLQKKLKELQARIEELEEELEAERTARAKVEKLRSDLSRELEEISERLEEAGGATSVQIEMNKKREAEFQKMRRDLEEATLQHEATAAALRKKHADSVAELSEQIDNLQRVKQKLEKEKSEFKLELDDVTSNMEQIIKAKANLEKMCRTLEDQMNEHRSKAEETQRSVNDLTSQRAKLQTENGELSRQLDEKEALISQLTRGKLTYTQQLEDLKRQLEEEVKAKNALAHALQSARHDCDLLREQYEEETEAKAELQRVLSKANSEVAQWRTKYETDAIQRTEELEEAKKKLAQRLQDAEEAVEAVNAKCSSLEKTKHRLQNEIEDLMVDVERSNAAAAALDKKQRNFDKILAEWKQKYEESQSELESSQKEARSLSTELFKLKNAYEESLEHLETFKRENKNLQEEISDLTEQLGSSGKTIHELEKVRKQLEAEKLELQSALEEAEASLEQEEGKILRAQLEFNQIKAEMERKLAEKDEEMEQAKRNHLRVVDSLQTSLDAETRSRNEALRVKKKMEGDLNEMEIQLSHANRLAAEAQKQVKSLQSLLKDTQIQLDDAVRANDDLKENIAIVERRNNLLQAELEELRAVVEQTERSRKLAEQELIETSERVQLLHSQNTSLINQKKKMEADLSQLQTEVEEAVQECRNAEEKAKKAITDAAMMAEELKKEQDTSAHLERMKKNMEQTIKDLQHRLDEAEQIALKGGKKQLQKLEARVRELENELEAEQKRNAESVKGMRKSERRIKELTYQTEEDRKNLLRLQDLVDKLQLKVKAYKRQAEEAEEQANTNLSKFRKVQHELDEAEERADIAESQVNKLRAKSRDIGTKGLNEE
# Sequence (P85100 whole entry partner): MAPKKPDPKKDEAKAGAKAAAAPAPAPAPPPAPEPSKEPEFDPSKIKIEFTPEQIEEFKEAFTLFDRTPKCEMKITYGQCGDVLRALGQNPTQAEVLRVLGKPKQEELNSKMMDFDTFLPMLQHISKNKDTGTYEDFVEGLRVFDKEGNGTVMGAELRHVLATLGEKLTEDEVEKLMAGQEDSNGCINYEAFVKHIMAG
# Sequence (Q3SZE5 whole entry partner): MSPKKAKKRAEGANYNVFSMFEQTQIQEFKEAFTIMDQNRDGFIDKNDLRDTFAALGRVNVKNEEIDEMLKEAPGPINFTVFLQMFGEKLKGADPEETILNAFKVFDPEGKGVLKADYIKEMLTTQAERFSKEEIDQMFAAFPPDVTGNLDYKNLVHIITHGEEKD
# assay-details: Skinned bovine cardiac myofibril ATPase assay (PK/LDH-coupled)
# measurement-conditions: Ca2+ activating to 75% of maximal rate, read-out: CDMF75 IC50
readout-name: IC50 (µM)

In the examples that follow, each entry is paired with its recorded IC50.
compound	unit-abbreviation	IC50
Cc1nc(-c2ccc3c(c2)CCC3NC(=O)c2c[nH]nc2C)no1 (centres unmarked)	µM	4.8
CC(=O)N[C@@H]1CCc2cc(-c3noc(C(F)F)n3)ccc21	µM	10.2

1 = CCn1nccc1C(=O)NC1CCc2cc(-c3noc(C(F)F)n3)ccc21 (centres unmarked)
2 = [2H]C([2H])([2H])c1nc(-c2ccc3c(c2)CC[C@H]3NC(=O)OC)no1
Input line: Quick check, higher IC50 between 1 and 2 ? // caller expects the label of the chosen entry
Output line: 1
(1: 5.3 µM, 2: 2.8 µM)
